Experiment: Kinetic solubility of compound in PBS at pH 7.4 by UV-VIS absorption spectrophotometry analysis
Assay type: physicochemical
Settings: PBS, read-out: Kinetic_solubility
Label rule, in plain words: solubility kinetic of 50 µM and up is condition met, under 50 µM is condition not met.

Example entries begin here.
1) O=C(Nc1ccc(Br)cc1)NC1CCN(CC2CCN(Cc3ccccc3)CC2)C1=O (stereo not given) ... condition met
2) CC(C)(C)OC(=O)N1CC(N2CCC(NC(=O)Nc3ccc(Br)cc3)C2=O)C1 (stereo not given) ... condition met
3) O=C(Nc1ccc(Br)cc1)NC1CCN(c2cnn(-c3ccncc3)c2)C1=O (stereo not given) ... condition not met
4) O=C(Nc1ccc(Br)cc1)NC1CCN(Cc2ccccc2)C1=O (stereo not given) ... condition met
5) CC(C)(C)OC(=O)N1CCC[C@H](N2CCC(NC(=O)Nc3ccc(Br)cc3)C2=O)C1 (stereo in doubt; 19) ... condition met
6) O=C(Nc1ccc(Br)cc1)NC1CCN(C2CCNCC2)C1=O (stereo not given) ... condition met
7) O=C(Nc1ccc(Br)cc1)NC1CCN(c2ccccc2)C1=O (stereo not given) ... condition not met
8) CC(C)(C)OC(=O)N1CCC(N2CCC(NC(=O)Nc3ccc(Br)cc3)C2=O)CC1 (stereo not given) ... condition met

Item CC(C)n1cc(N2CCC(NC(=O)Nc3ccc(Br)cc3)C2=O)cn1 (stereo not given) with solubility kinetic of 50 µM or above?
condition not met

Item CC(C)(C)OC(=O)N1CCC(CN2CCC(NC(=O)Nc3ccc(Br)cc3)C2=O)CC1 (stereo not given) with solubility kinetic of 50 µM or above?
condition met

* * *

Assay: Half life in C57BL6 mouse at 10 mg/kg, ip
Type: ADME, organism-based
Settings: in vivo
OBSERVATION_TYPE: half-life (min)
# unit: min | format: bare number

Which half-life value is on record for O=C(Nc1ccc(Br)cc1)NC1CCN(c2ccccc2)C1=O (stereo unspecified) ?
565

* * *

Target: UniProtKB P25090
Sequence (P25090 whole entry): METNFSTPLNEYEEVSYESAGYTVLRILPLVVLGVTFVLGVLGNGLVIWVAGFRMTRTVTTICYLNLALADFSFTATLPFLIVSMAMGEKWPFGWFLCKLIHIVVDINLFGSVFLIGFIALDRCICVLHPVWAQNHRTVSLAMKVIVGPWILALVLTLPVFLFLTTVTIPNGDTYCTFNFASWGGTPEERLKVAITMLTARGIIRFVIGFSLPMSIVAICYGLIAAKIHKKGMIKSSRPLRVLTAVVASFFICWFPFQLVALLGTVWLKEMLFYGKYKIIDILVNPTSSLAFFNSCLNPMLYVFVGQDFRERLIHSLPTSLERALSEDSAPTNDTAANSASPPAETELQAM
Assay: Agonist activity at FPRL1 (unknown origin) expressed in CHO-K1 cells assessed as stimulation of beta-arrestin recruitment incubated for 150 mins by beta-galactosidase based PathHunter assay
Type: functional, cell-based
Settings: read-out: EC50
pEC50: −log10 of the molar value.
Label rule, in plain words: pEC50 of 6 and up is Met, under 6 is Not met.

Example entries begin here.
1. O=C(Nc1ccc(Br)cc1)NC1CCN(c2cnn(-c3ccncc3)c2)C1=O (configuration not stated) ... Not met
2. CC(C)(C)OC(=O)N1CCC(N2CCC(NC(=O)Nc3ccc(Br)cc3)C2=O)CC1 (configuration not stated) ... Not met
3. O=C(Nc1ccc(Br)cc1)NC1CCN(c2ccccc2)C1=O (configuration not stated) ... Met

Item Cc1nn(-c2ccccc2)c(C)c1N1CCC(NC(=O)Nc2ccc(Br)cc2)C1=O (configuration not stated) with pEC50 of 6 or above?
Met

Item CC(C)(C)OC(=O)N1CCC(CN2CCC(NC(=O)Nc3ccc(Br)cc3)C2=O)CC1 (configuration not stated) with pEC50 of 6 or above?
Not met

Item O=C(Nc1ccc(Br)cc1)NC1CCN(C2CCN(c3ncccn3)CC2)C1=O (configuration not stated) with pEC50 of 6 or above?
Met

Item O=C(Nc1ccc(Br)cc1)NC1CCN(C2CCN(Cc3ccccc3)CC2)C1=O (configuration not stated) with pEC50 of 6 or above?
Not met
